// provenance: patent US20100210700A1

- TEST DETAILS: Two-way crossover pilot bioavailability study, IV (1-hour infusion) vs PO temozolomide
- Type: in vivo, human
- PROTOCOL CONDITIONS: human, plasma, po, 150 mg/m^2/day, humans, n=13 patients; read-out: oral bioavailability, range
MEASUREMENT KIND: bioavailability

Per the record, Cn1nnc2c(C(N)=O)ncn2c1=O has bioavailability of 89 to 100%

* * *

- TEST DETAILS: Clinical bioequivalence study, IV (1.5-hr infusion) vs oral TMZ, primary CNS malignancies
- Type: in vivo, human
- PROTOCOL CONDITIONS: human, plasma; IV 1.5 hr infusion, 150 mg/m^2/day, Time 2.5 hr, n = 19; read-out: Mean Temozolomide Concentration
MEASUREMENT KIND: concentration at 2.5 hr (ng/mL)
The figure you give is taken to be in ng/mL; do not add the unit.

Per the record, Cn1nnc2c(C(N)=O)ncn2c1=O has concentration at 2.5 hr of 4590

* * *

- TEST DETAILS: Clinical bioequivalence study, IV (1.5-hr infusion) vs oral TMZ, primary CNS malignancies
- Format: in vivo, human
- PROTOCOL CONDITIONS: human, plasma, iv, 150 mg/m^2/day, TMZ IV 1.5 hr infusion, 150 mg/m^2/day, n = 19; read-out: AUC(I) of TMZ, Mean
- Protocol: Twenty-two patients with primary CNS malignancies were enrolled in a clinical bioequivalence study and treated according to the methods of the present invention. Nineteen of the patients were considered to be pharmacokinetic evaluable. This study was a randomized, open-label, 2-way cross over study of the PK of oral and IV TMZ. The IV formulation of Example 3 is administered at a dosage of 150-200 mg/m^2 by intravenous infusion over a period of about 1.5 hours. […]
MEASUREMENT KIND: AUC (ng·h/mL)
The figure you give is taken to be in ng·h/mL; do not add the unit.

Per the record, Cn1nnc2c(C(N)=O)ncn2c1=O has AUC of 25000

* * *

- TEST DETAILS: Clinical bioequivalence study, IV (1.5-hr infusion) vs oral TMZ, primary CNS malignancies
- Type: in vivo, human
- PROTOCOL CONDITIONS: human, plasma; PO, 150 mg/m^2/day, Time 0 hr, n = 19; read-out: Mean Temozolomide Concentration
MEASUREMENT KIND: concentration at 0 hr (ng/mL)
The figure you give is taken to be in ng/mL; do not add the unit.

Per the record, Cn1nnc2c(C(N)=O)ncn2c1=O has concentration at 0 hr of 0

* * *

- TEST DETAILS: Clinical bioequivalence study, IV (1.5-hr infusion) vs oral TMZ, primary CNS malignancies
- Assay type: in vivo, human
- PROTOCOL CONDITIONS: human, plasma; PO, 150 mg/m^2/day, Time 4 hr, n = 19; read-out: Mean Temozolomide Concentration
- Protocol: Twenty-two patients with primary CNS malignancies were enrolled in a clinical bioequivalence study and treated according to the methods of the present invention. Nineteen of the patients were considered to be pharmacokinetic evaluable. This study was a randomized, open-label, 2-way cross over study of the PK of oral and IV TMZ. The IV formulation of Example 3 is administered at a dosage of 150-200 mg/m^2 by intravenous infusion over a period of about 1.5 hours. […]
MEASUREMENT KIND: concentration at 4 hr (ng/mL)
The figure you give is taken to be in ng/mL; do not add the unit.

Per the record, Cn1nnc2c(C(N)=O)ncn2c1=O has concentration at 4 hr of 2410
